Target: human PPARα ligand-binding domain (Gal4 chimera) (Homo sapiens)
Construct: coding for the hinge region and LBD of the canonical isoform of the respective nuclear receptor; expressed in transfected cells; host or cells: HEK293T
Sequence (Q07869 239-466 limits assumed): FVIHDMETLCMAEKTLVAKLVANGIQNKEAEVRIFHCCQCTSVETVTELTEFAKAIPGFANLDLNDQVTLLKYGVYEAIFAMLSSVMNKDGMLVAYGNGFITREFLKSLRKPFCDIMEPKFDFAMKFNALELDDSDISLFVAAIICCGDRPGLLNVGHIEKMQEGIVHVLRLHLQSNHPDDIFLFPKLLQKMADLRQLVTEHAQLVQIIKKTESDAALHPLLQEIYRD
Assay: Gal4 hybrid reporter gene assay, PPARα
Assay type: cell-based
Conditions: PPARα EC50, as stated in text
OBSERVED PROPERTY: EC50
# output: number + unit

Tell me EC50 reported for CC(C)(C)c1ccc(C(=O)Nc2cccc(CCC(=O)O)c2)c(NC(=O)c2ccc(-c3ccco3)cc2)c1 [compound 41]
168 nM

====

biological target: human PPARα ligand-binding domain (Gal4 chimera) (Homo sapiens, UniProt Q07869); construct: coding for the hinge region and LBD of the canonical isoform of the respective nuclear receptor; expressed in transfected cells; host or cells: HEK293T; experiment: Gal4 hybrid reporter gene assay, PPARα; assay type: cell-based; set-up: dose or concentration left out as unconfirmed; settings: read-out: PPAR max. rel. act.
Binary call on Emax: satisfied from 30% upward, not satisfied beneath that.

// known answers, use as guide
O=C(O)CCc1cccc(NC(=O)c2ccccc2NC(=O)C2=Cc3cc(Cl)ccc3OC2)c1	not satisfied
O=C(O)CCc1cccc(NC(=O)c2ccccc2NC(=O)C2=Cc3cccc(Cl)c3OC2)c1	satisfied
Cc1ccc2c(c1)OCC(C(=O)Nc1ccccc1C(=O)Nc1cccc(CCC(=O)O)c1)=C2	satisfied
O=C(O)CCc1cccc(NC(=O)c2ccccc2NC(=O)C2=C(Cl)c3ccccc3OC2)c1	satisfied
O=C(O)CCc1cccc(NC(=O)c2ccccc2NC(=O)C2=Cc3ccccc3OC2)c1	not satisfied

For this compound, is measured Emax 30% or higher? `Cc1ccc2c(c1)C=C(C(=O)Nc1ccccc1C(=O)Nc1cccc(CCC(=O)O)c1)CO2`
not satisfied

State whether the measured Emax reaches 30%, counting equality as reaching it, for `Cc1cccc2c1OCC(C(=O)Nc1ccccc1C(=O)Nc1cccc(CCC(=O)O)c1)=C2`
not satisfied

Has `COc1cccc2c1OCC(C(=O)Nc1ccccc1C(=O)Nc1cccc(CCC(=O)O)c1)=C2` a recorded Emax greater than or equal to 30%?
not satisfied

Given `O=C(O)CCc1cccc(NC(=O)c2ccccc2NC(=O)C2=Cc3cc(F)ccc3OC2)c1` , state whether its Emax is at least 30%.
not satisfied

Hi, just wondering whether `Cc1cccc2c1C=C(C(=O)Nc1ccccc1C(=O)Nc1cccc(CCC(=O)O)c1)CO2` shows Emax of 30% or higher.
not satisfied

====

Biological target: human PPARα ligand-binding domain (Gal4 chimera) (Homo sapiens, UniProt Q07869)
Construct: coding for the hinge region and LBD of the canonical isoform of the respective nuclear receptor; expressed in transfected cells; host or cells: HEK293T
Sequence (Q07869 239-466 limits assumed): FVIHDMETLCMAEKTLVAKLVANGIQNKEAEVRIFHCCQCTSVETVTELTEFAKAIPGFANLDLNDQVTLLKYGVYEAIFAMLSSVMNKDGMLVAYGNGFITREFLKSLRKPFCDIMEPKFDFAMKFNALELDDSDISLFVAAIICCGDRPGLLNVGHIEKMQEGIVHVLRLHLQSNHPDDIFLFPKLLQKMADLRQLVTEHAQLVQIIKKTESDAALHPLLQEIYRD
Assay: Gal4 hybrid reporter gene assay, PPARα
Format: cell-based
Settings: EC50 [μM] PPARα, HEK293T; mean ± SEM, n = 3
# note: boundary value 0.9 µM maps to False; EC50 below it maps to True

See these solved cases before continuing.
O=C(O)CCc1cccc(NC(=O)c2ccccc2NC(=O)c2ccc3ccccc3c2)c1	False
Cc1ccc(NC(=O)c2ccc3ccccc3c2)c(C(=O)Nc2cccc(CCC(=O)O)c2)c1	True
O=C(O)CCc1ccc(NC(=O)c2ccccc2NC(=O)c2ccc3ccccc3c2)cc1	False
O=C(O)CCc1cccc(NC(=O)c2ccccc2NC(=O)c2ccc(-c3cccs3)cc2)c1	False
CC(C)(C)c1ccc(C(=O)Nc2cccc(CCC(=O)O)c2)c(NC(=O)c2ccc(-c3ccco3)cc2)c1	True
O=C(O)CNc1cccc(NC(=O)c2ccccc2NC(=O)c2ccc3ccccc3c2)c1	False

Pending molecule:
Does the reported EC50 of the following molecule sit strictly below 0.9 µM? `CC(C)(C)c1ccc(C(=O)Nc2cccc(CCC(=O)O)c2)c(NC(=O)c2ccc3ccccc3c2)c1`
True
